Experiment: Pharmacokinetics of WT-161 in CD-1 mice after intravenous administration (plasma, LC-MS/MS)
Format: in vivo
Details: male, mouse, plasma; CD-1 mice, IV 5 mg/kg; read-out: MRT(0-∞)

[
  {
    "COMPOUND": "O=C(CCCCCCC(=O)N/N=C/c1ccc(N(c2ccccc2)c2ccccc2)cc1)NO [WT-161]",
    "MRT inf [min]": 19.8
  }
]

* * *

Assay: Pharmacokinetics of WT-161 in CD-1 mice after intravenous administration (plasma, LC-MS/MS)
Type: in vivo
Conditions: male, CD-1, mouse, plasma, iv, 5 mg/kg, 6 hr post-dose, IV 5 mg/kg; BLQ designated as zero; read-out: Concentration in plasma, Mean
MEASUREMENT_LABEL: concentration at 6 hr (ng/mL)

[
  {
    "SMILES_ENTRY": "O=C(CCCCCCC(=O)N/N=C/c1ccc(N(c2ccccc2)c2ccccc2)cc1)NO",
    "VALUE_MEASURED": 4.15
  }
]

* * *

Test: Pharmacokinetics of WT-161 in CD-1 mice after intravenous administration (plasma, LC-MS/MS)
Type: in vivo
Conditions: male, CD-1, mouse, plasma, iv, 5 mg/kg, 2 hr post-dose, IV 5 mg/kg; read-out: Concentration in plasma, Mean

[
  {
    "SMILES_ENTRY": "O=C(CCCCCCC(=O)N/N=C/c1ccc(N(c2ccccc2)c2ccccc2)cc1)NO",
    "concentration at 2 hr, ng/mL": 95.2
  }
]

* * *

Test: Pharmacokinetics of WT-161 in CD-1 mice after intravenous administration (plasma, LC-MS/MS)
Type: in vivo
Conditions: male, mouse; CD-1 mice, IV 5 mg/kg, plasma

[
  {
    "COMPOUND": "O=C(CCCCCCC(=O)N/N=C/c1ccc(N(c2ccccc2)c2ccccc2)cc1)NO [WT-161]",
    "SCALE_UNIT": "ng·h/mL",
    "AUC(0-t)": 3020
  }
]

* * *

Experiment: Pharmacokinetics of WT-161 in CD-1 mice after intravenous administration (plasma, LC-MS/MS)
Format: in vivo
Settings: male, CD-1, mouse, plasma, iv, 5 mg/kg, 1 hr post-dose, IV 5 mg/kg

[
  {
    "COMPOUND": "O=C(CCCCCCC(=O)N/N=C/c1ccc(N(c2ccccc2)c2ccccc2)cc1)NO [WT-161]",
    "SCALE_UNIT": "ng/mL",
    "concentration at 1 hr": 148
  }
]
